tested on: LMP1 expression in Kem I cells; assay: microbe, parasite or virus in culture; assay type: cell-based, EBV; conditions: human gammaherpesvirus 4, 48 h, read-out: Replicate 2-LMP1 Fold Increase, Kem I cells, 2.5 uM, 48 hours, fold change in LMP1 transcript vs vehicle
Where a name gives a salt, the structure may show the parent alone.
API: label(entry) gives satisfied if the entry's fold induction at 2.5 µM is strictly smaller than 1; on equality or larger values it gives not satisfied.

# example entries with known answers
{"columns": ["molecule", "label-class"],
 "data": [
  ["Oc1ncnc2[nH]ncc12", "satisfied"],
  ["C[C@]12C=CC(=O)N[C@@H]1CC[C@@H]1[C@@H]2CC[C@]2(C)[C@@H](C(=O)Nc3cc(C(F)(F)F)ccc3C(F)(F)F)CC[C@@H]12 [Dutasteride]", "satisfied"],
  ["C[C@H](NCc1ccc(OCc2cccc(F)c2)cc1)C(N)=O [Safinamide Mesylate]", "not satisfied"],
  ["CCN[C@H]1CN(CCCOC)S(=O)(=O)c2sc(S(N)(=O)=O)cc21 [Brinzolamide]", "satisfied"],
  ["CN(C)CCc1c[nH]c2ccc(Cn3cncn3)cc12 [Rizatriptan Benzoate]", "satisfied"]
]}

# TODO verify fold induction at 2.5 µM < 1 strictly for this molecule: O=C(NC(Cc1cc(=O)[nH]c2ccccc12)C(=O)O)c1ccc(Cl)cc1 (stereo not shown) [Rebamipide]
not satisfied

hey, is fold induction at 2.5 µM for `CC(C)CC(=O)Nc1[nH]nc2c1CN(C(=O)C1CCN(C)CC1)C2(C)C` lower than 1 or not?
not satisfied

Determine whether this molecule shows fold induction at 2.5 µM lower than 1 (ties excluded): `CC[C@H](C)C(=O)O[C@H]1C[C@@H](C)C=C2C=C[C@H](C)[C@H](CC[C@@H]3C[C@@H](O)CC(=O)O3)[C@H]21`
not satisfied

Here's an entry: `Oc1c2ccccc2c2c3c(cccc13)N=N2` . Is its fold induction at 2.5 µM below 1?
satisfied

Report whether reported fold induction at 2.5 µM is lower than 1 (strictly) for `N#Cc1ccc(C(c2ccc(C#N)cc2)n2cncn2)cc1`
not satisfied

# check: fold induction at 2.5 µM < 1 for CCN(CC)C(=O)c1ccc(C2=CC3(CCNCC3)Oc3cccc(O)c32)cc1 [ADL5859 HCl]
not satisfied

Consider the molecule `CCOc1nc2cccc(C(=O)O)c2n1Cc1ccc(-c2ccccc2-c2nnn[nH]2)cc1` . Is its fold induction at 2.5 µM strictly less than 1?
satisfied

Strictly below 1 in fold induction at 2.5 µM? Cc1ccccc1C(=O)Nc1ccc(C(=O)N2CCCC(N(C)C)c3ccccc32)cc1 (stereo not shown)
satisfied

Strictly below 1 in fold induction at 2.5 µM? `CCN(CC)C(=O)/C(C#N)=C/c1cc(O)c(O)c([N+](=O)[O-])c1`
satisfied

Item `O=C(O)c1ccc(Nc2ncc3c(n2)-c2ccc(Cl)cc2C(c2c(F)cccc2F)=NC3)cc1` : fold induction at 2.5 µM beneath 1, strictly?
satisfied

Identify whether the molecule `N#CC1(c2ccc(NC(=O)c3cccnc3NCc3ccncc3)cc2)CCCC1` records fold induction at 2.5 µM below 1.
satisfied

API: query returns whether the molecule falls strictly under 1 in fold induction at 2.5 µM. Query: `CC(C)(C#N)c1cc(Cn2cncn2)cc(C(C)(C)C#N)c1`
not satisfied

State whether 1 exceeds fold induction at 2.5 µM recorded for `C=CCn1c(=O)c2cnc(Nc3ccc(N4CCN(C)CC4)cc3)nc2n1-c1cccc(C(C)(C)O)n1` .
not satisfied

Determine if `O=c1cc(-c2ccc(O)cc2)oc2cc(O)cc(O)c12` shows fold induction at 2.5 µM strictly lower than 1.
satisfied
